System: MALME-3M melanoma
Assay: NCI tumour cell line growth inhibition, 48 h; in the data active = GI50 below about 0.43 µM; inactive = the rest
Outcome codes: y (active), n (inactive)

{"compound": "COc1cc(-c2nc3sccn3c2-c2ccnc(NCCNS(=O)(=O)c3ccc(F)cc3)n2)ccc1F", "class_assignment": "n"}
{"compound": "CC[C@@H](c1ccc(O)c(O)c1)[C@@H](CC)c1ccc(O)c(O)c1", "class_assignment": "n"}
{"compound": "O=C(Nc1nn2c(-c3cc(C(F)(F)F)cc(C(F)(F)F)c3)nnc2s1)C1CCCC1", "class_assignment": "y"}
{"compound": "c1ccc(-c2n(Cc3ccc4ccccc4n3)cc[n+]2Cc2ccc3ccccc3c2)cc1", "class_assignment": "n"}
{"compound": "CN1CCN(c2ccc(Nc3ncc(Cl)c(NC[C@@H]4CCCO4)n3)cc2)CC1", "class_assignment": "n"}
{"compound": "COc1cc2c(cc1OC)-c1cc(OC)c(OC)cc1C(CN(C)C)C2 (stereo not drawn)", "class_assignment": "n"}
{"compound": "CCOC(=O)n1cc(C2=C(c3ccc(OC)c(OC)c3)COC2=O)c2ccccc21", "class_assignment": "y"}
{"compound": "NC(=S)N/N=C1\\c2cc(Cl)ccc2-c2c1cc(Cl)cc2[N+](=O)[O-]", "class_assignment": "n"}
